B1: TPR t1 (parent)
chain: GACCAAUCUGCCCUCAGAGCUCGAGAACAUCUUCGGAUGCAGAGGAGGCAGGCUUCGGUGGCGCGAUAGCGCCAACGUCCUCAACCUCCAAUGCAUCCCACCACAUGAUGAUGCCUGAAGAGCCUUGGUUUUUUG

# Variants of: B1
# procedure_text: polymerase ribozyme fitness, log enrichment relative to wild type (log ratio); higher = more active; in vitro selection for triplet polymerase activity
The entries below come with measured polymerase ribozyme fitness (log ratio) values attached.
In your answer, state the number alone without any accompanying words.

Please review the following examples before continuing.
[
  {
    "mutation_notation": "G60C G93A",
    "polymerase ribozyme fitness (log ratio)": -0.963
  },
  {
    "mutation_notation": "C4U",
    "polymerase ribozyme fitness (log ratio)": -0.513
  },
  {
    "mutation_notation": "U38A G120U",
    "polymerase ribozyme fitness (log ratio)": 0.263
  }
]

Value of polymerase ribozyme fitness (log ratio) reported for the variant A37U G60A is -0.626

Value of polymerase ribozyme fitness (log ratio) reported for the variant C11A C20U C73A A118U U133A is -2.94

Value of polymerase ribozyme fitness (log ratio) reported for the variant C12U C72G G117C A119U is -1

Value of polymerase ribozyme fitness (log ratio) reported for the variant G120U U131A is -1.19

Value of polymerase ribozyme fitness (log ratio) reported for the variant A50C U116C is -1.32
